TARGET_OF_ASSAY: T1, cynomolgus CD47, on CHOK1-cCD47 stable cell line (cynomolgus)
T1 construct: whole, on cells; check before use; also called CHOK1/cynoCD47; monkey-derived CD47
RUN_DESCRIPTION: FACS CHOK1-cCD47; Ab 0.0128 nM

{"columns": ["BINDER", "mean fluorescence intensity"],
 "data": [
  ["95E2D10 (antibody, V domains shown, Murine hybridoma antibody purified on protein G) VH: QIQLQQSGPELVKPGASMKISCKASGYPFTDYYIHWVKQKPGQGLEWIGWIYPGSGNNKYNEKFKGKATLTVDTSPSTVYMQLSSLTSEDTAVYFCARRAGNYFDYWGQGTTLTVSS VL: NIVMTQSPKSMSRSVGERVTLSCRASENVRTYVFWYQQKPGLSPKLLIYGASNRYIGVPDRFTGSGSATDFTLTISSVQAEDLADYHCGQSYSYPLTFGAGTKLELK", 223],
  ["4D10B11 (antibody, V domains shown, Murine hybridoma antibody purified on protein G) VH: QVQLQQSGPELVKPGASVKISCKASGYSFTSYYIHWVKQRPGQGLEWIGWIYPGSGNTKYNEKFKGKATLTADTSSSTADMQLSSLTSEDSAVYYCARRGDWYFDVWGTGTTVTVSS VL: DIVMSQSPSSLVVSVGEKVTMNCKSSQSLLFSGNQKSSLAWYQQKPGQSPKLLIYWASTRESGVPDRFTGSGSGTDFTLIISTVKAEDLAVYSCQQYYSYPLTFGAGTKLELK", 218],
  ["54G8G6 (antibody, V domains shown, Murine hybridoma antibody purified on protein G) VH: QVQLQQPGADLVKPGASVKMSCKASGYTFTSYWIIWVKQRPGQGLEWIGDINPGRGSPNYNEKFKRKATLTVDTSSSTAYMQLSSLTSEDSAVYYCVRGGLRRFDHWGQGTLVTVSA VL: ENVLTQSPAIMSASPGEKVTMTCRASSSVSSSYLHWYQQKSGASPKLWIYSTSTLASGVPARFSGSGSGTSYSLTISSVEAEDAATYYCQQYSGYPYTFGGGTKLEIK", 278],
  ["25E3B5 (antibody, V domains shown, Murine hybridoma antibody purified on protein G) VH: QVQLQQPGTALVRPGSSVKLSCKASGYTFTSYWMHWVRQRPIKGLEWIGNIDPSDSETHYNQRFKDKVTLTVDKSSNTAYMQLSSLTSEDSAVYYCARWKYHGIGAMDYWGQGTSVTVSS VL: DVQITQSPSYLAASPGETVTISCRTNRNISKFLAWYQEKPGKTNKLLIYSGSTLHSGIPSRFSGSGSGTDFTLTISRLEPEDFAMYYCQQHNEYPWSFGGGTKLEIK", 422]
]}

Where do the numbers come from? From patent US20220017615A1.
